These entries and their values trace back to the supplement of paper PMC4466140.

So I've got a bunch of binders here, and I need their SPOT peptide array binding signal intensity values.
biological target: SpAbp1-D1; experiment: SPOT peptide array binding signal intensity (averaged, normalized) (arbitrary units (background-subtracted, floor 0; scale differs between SH3 domains)); higher = stronger binding of the SH3 domain to the peptide
Answers are plain numbers.

Worked cases, SPOT peptide array binding signal intensity given:
[ask] If you can, please state the reported SPOT peptide array binding signal intensity value of NMLSRPRLAKLPSIR .
[reply] 610

[ask] Can you handle RPVPRRPSQPLNTLS next?
[reply] 147

[ask] // query: LPMNIQPDLPPRKIM
[reply] 48

Field: SPOT peptide array binding signal intensity. Fill in for each record below.
1. PKRRAPPPVPKKPSS
2. TPRLSLPRLPNKHHW
3. VTHRLRISIPGITGR
4. MKRSRPSRSIPYTTP

[reply]
1: 1910; 2: 386; 3: 95.5; 4: 507
